Entries annotated with measured pEC50
# Target Of Assay: hTRPM8 (Homo sapiens, UniProt Q7Z2W7)
# Construct: expressed in transfected cells
# Sequence (Q7Z2W7 whole entry): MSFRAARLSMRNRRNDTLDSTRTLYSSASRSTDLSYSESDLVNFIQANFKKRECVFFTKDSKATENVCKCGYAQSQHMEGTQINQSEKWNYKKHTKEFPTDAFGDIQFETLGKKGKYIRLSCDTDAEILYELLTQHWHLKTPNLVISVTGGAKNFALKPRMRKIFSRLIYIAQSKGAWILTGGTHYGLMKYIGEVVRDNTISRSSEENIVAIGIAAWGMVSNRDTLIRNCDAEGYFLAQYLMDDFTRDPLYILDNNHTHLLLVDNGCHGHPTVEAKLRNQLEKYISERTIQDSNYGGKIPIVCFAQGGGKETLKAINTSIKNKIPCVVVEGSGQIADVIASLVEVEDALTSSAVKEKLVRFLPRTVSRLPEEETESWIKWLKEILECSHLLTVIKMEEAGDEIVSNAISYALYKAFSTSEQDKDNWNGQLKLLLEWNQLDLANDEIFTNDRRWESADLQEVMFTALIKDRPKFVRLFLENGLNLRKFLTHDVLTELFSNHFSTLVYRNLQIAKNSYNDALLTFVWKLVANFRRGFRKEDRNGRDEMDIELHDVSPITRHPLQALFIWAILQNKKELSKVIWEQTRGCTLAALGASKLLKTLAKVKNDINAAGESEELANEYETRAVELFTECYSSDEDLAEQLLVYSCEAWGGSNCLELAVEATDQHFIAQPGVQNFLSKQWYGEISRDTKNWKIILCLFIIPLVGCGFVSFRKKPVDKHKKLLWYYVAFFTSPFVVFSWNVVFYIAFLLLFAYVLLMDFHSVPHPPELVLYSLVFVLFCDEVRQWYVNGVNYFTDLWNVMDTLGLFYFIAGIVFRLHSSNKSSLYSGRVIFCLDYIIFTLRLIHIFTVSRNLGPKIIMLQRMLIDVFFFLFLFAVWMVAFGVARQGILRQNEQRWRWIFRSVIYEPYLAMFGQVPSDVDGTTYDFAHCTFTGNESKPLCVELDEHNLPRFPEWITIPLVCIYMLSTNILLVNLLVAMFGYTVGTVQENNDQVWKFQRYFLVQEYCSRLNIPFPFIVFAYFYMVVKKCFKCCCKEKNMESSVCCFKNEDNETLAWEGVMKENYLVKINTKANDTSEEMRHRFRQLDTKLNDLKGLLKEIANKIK
# Assay Notes: Assay on TRPM8 modulators: calcium imaging (Fluo-4, Flexstation) in HEK293 cell line stably expressing hTRPM8
# Assay type: cell-based
# Condition Info: TRPM8 agonist activity, calcium influx, HEK293 stably expressing hTRPM8, sigmoidal dose-response fit
# Protocol: A HEK293 cell line stably expressing hTRPM8 was generated according to Klein et al., (Chem. Senses 36: 649-658, 2011) and receptor activation was monitored by calcium imaging in a Flexstation. […] On day 2, agonists were evaluated via calcium imaging using Fluo-4. […] The cells were then washed five times with 100 μL assay buffer and then calcium influx to serial dilutions of inventive compounds were measured in a Flexstation 3 (Molecular Devices). […]
pEC50: −log10 of the molar value.

Worked examples, 2 molecules total:
molecule="Cc1ccc(OCCN2CCN(C)CC2)c(Cc2ccccc2)c1 [compound 77]" experimental_result="6.00 to 6.52"
molecule="Cc1cc(C)c(OC(C)CN2CCN(C)CC2)c(Cc2ccccc2C#N)c1 (stereo not drawn) [compound 115]" experimental_result="6.52 to 7.30"

Okay, now this molecule:
Which pEC50 reading was recorded for the molecule Cc1ccc(OCCN2CCC(O)CC2)c(Cc2ccccc2)c1 [compound 89] ?
4.46 to 6.00

* * *

# Target Of Assay: hTRPM8 (Homo sapiens, UniProt Q7Z2W7)
# Assay Notes: Assay on TRPM8 modulators: calcium imaging (Fluo-4, Flexstation) in HEK293 cell line stably expressing hTRPM8
# Condition Info: TRPM8 agonist activity, calcium influx, HEK293 stably expressing hTRPM8, sigmoidal dose-response fit
Structures can show the parent of a compound that is named as a salt.
Entries annotated with measured EC50

Worked examples, 8 compounds total:
compound="Cc1cc(C)c(OCCN2CCN(C)CC2)c(Cc2ccccc2C#N)c1.Cl [compound 118, hydrochloride]" target_of_assay="hTRPM8 (Homo sapiens, UniProt Q7Z2W7)" experimental_result="< 50 nM"
compound=Cc1cc(C)c(OCCN2CCOCC2)c(Cc2ccccc2F)c1 target_of_assay="hTRPM8 (Homo sapiens, UniProt Q7Z2W7)" experimental_result="50 to 300 nM"
compound=Cc1cc(C)c(N(C)CCN2CCOCC2)c(Cc2c(F)cccc2F)c1 target_of_assay="hTRPM8 (Homo sapiens, UniProt Q7Z2W7)" experimental_result="300 to 1000 nM"
compound="CCN1CCN(CCOc2ccc(Cl)cc2Cc2ccccc2)CC1 [compound 72, hydrochloride]" target_of_assay="hTRPM8 (Homo sapiens, UniProt Q7Z2W7)" experimental_result="1000 to 35000 nM"
compound=Cc1cc(C)c(OCCN2CCOCC2)c(Cc2c(Cl)cccc2Cl)c1 target_of_assay="hTRPM8 (Homo sapiens, UniProt Q7Z2W7)" experimental_result="300 to 1000 nM"
compound="Cc1cc(C)c(OCCN2CCOCC2)c(C(C)c2ccccc2F)c1 (stereo not shown)" target_of_assay="hTRPM8 (Homo sapiens, UniProt Q7Z2W7)" experimental_result="300 to 1000 nM"
compound="Cc1ccc(OCCCN2CCN(C)CC2)c(Cc2ccccc2)c1 [compound 99, hydrochloride]" target_of_assay="hTRPM8 (Homo sapiens, UniProt Q7Z2W7)" experimental_result="1000 to 35000 nM"
compound=Cc1cc(C)c(OCCN2CCN(C)CC2)cc1Cc1ccccc1C#N target_of_assay="hTRPM8 (Homo sapiens, UniProt Q7Z2W7)" experimental_result="1000 to 35000 nM"

Which EC50 reading was recorded for the compound `Cc1cc(C)c(N(C)CCN2CCOCC2)c(Cc2ccccc2F)c1` ?
300 to 1000 nM

Which EC50 reading was recorded for the compound `Cc1cc(C)c(OCCN2CCOCC2)c(Cc2c(F)cccc2C#N)c1` ?
50 to 300 nM

Which EC50 reading was recorded for the compound `COC(=O)c1ccc(OCCN2CCN(C)CC2)c(Cc2ccccc2)c1` ?
1000 to 35000 nM

Which EC50 reading was recorded for the compound `Cc1ccc(CCCN2CCN(C)CC2)c(Oc2ccccc2C#N)c1` ?
50 to 300 nM

Which EC50 reading was recorded for the compound `Cc1cc(C)c(OCCN2CCOCC2)c(Cc2ccc(F)cc2F)c1` ?
300 to 1000 nM

Which EC50 reading was recorded for the compound Cc1ccc(OC(C)CN2CCN(C)CC2)c(Cc2ccccc2)c1 (stereo not shown) [compound 91, hydrochloride] ?
300 to 1000 nM

Which EC50 reading was recorded for the compound `Cc1cc(C)c(OCCN2CCOCC2)c(Cc2ccccc2CC#N)c1` ?
50 to 300 nM

Which EC50 reading was recorded for the compound `Cc1cc(C)c(OCCN2CCOCC2)c(Cc2ccccc2[N+](=O)[O-])c1` ?
300 to 1000 nM

Which EC50 reading was recorded for the compound `C=C(c1ccccc1)c1cc(C)ccc1OCCN1CCN(C)CC1` ?
300 to 1000 nM

Which EC50 reading was recorded for the compound `Cc1cc(C)c(OCCN2CCN(C)CC2)c(Cc2ccccc2Br)c1` ?
300 to 1000 nM

Which EC50 reading was recorded for the compound `Cc1cc(C)c(OCCCN2CCOCC2)c(Cc2ccccc2C#N)c1` ?
50 to 300 nM

* * *

# Target Of Assay: hTRPM8 (Homo sapiens, UniProt Q7Z2W7)
# Assay Notes: Assay on TRPM8 modulators: calcium imaging (Fluo-4, Flexstation) in HEK293 cell line stably expressing hTRPM8
# Condition Info: TRPM8 agonist activity, calcium influx, HEK293 stably expressing hTRPM8, sigmoidal dose-response fit
pEC50: −log10 of the molar value.
Measured Endpoint: pEC50

molecule=Cc1ccc(NCCN2CCOCC2)c(Cc2c(F)cccc2F)c1 target_of_assay="hTRPM8 (Homo sapiens, UniProt Q7Z2W7)" measured_endpoint=pEC50 experimental_result="6.00 to 6.52"
molecule="Cc1ccc(OCCN2CCN(C)CC2)c(C(C)c2ccccc2)c1 (centres unmarked)" target_of_assay="hTRPM8 (Homo sapiens, UniProt Q7Z2W7)" measured_endpoint=pEC50 experimental_result="6.00 to 6.52"
molecule=Cc1ccc(OCCN2CCN(C)CC2)c(Cc2ccccc2Cl)c1 target_of_assay="hTRPM8 (Homo sapiens, UniProt Q7Z2W7)" measured_endpoint=pEC50 experimental_result="6.52 to 7.30"
molecule=Cc1ccc(OCCN2CCOCC2)c(Cc2c(F)cccc2F)c1 target_of_assay="hTRPM8 (Homo sapiens, UniProt Q7Z2W7)" measured_endpoint=pEC50 experimental_result="6.52 to 7.30"
molecule=Cc1ccc(N(C)CCN2CCOCC2)c(Cc2ccccc2)c1 target_of_assay="hTRPM8 (Homo sapiens, UniProt Q7Z2W7)" measured_endpoint=pEC50 experimental_result="6.52 to 7.30"
molecule=Cc1ccc(N(C)CCN2CCN(C)CC2)c(Cc2ccccc2)c1 target_of_assay="hTRPM8 (Homo sapiens, UniProt Q7Z2W7)" measured_endpoint=pEC50 experimental_result="6.52 to 7.30"
molecule=Cc1cc(C)c(OCCN2CCN(C)CC2)c(Cc2ccccc2C(F)(F)F)c1 target_of_assay="hTRPM8 (Homo sapiens, UniProt Q7Z2W7)" measured_endpoint=pEC50 experimental_result="6.00 to 6.52"
molecule=Cc1ccc(N(C)CCN2CCOCC2)c(Cc2ccccc2F)c1 target_of_assay="hTRPM8 (Homo sapiens, UniProt Q7Z2W7)" measured_endpoint=pEC50 experimental_result="6.52 to 7.30"

Which pEC50 reading was recorded for the molecule Cc1cc(C)c(OC(C)CN2CCOCC2)c(Cc2c(F)cccc2F)c1 (centres unmarked) ?
6.00 to 6.52

Which pEC50 reading was recorded for the molecule `Cc1ccc(OCCN2CCN(C)CC2)c(Cc2cccc(Cl)c2)c1` ?
4.46 to 6.00

* * *

# Target Of Assay: hTRPM8 (Homo sapiens)
# Assay Notes: Assay on TRPM8 modulators: calcium imaging (Fluo-4, Flexstation) in HEK293 cell line stably expressing hTRPM8
# Condition Info: TRPM8 agonist activity, calcium influx, HEK293 stably expressing hTRPM8, sigmoidal dose-response fit
Entries annotated with measured EC50

compound="Cc1ccc(OCCN2CCN(C)CC2)c(C(O)c2ccccc2)c1 (stereo not drawn)" target_of_assay="hTRPM8 (Homo sapiens)" experimental_result="1000 to 35000 nM"

Okay, now this compound:
Hi! What's the reported EC50 for Cc1ccc(OCC(C)N2CCOCC2)c(Cc2ccccc2C#N)c1 (stereo not drawn) on hTRPM8 (Homo sapiens)?
300 to 1000 nM

* * *

# Target Of Assay: hTRPM8 (Homo sapiens, UniProt Q7Z2W7)
# Construct: expressed in transfected cells
# Assay Notes: Assay on TRPM8 modulators: calcium imaging (Fluo-4, Flexstation) in HEK293 cell line stably expressing hTRPM8
# Assay type: cell-based
# Condition Info: TRPM8 agonist activity, calcium influx, HEK293 stably expressing hTRPM8, sigmoidal dose-response fit
pEC50: −log10 of the molar value.
Entries annotated with measured pEC50

compound=Cc1ccc(CCCN2CCN(C)CC2)c(Cc2ccccc2)c1 target_of_assay="hTRPM8 (Homo sapiens, UniProt Q7Z2W7)" experimental_result="6.00 to 6.52"
compound=Cc1cc(C)c(OCCN2CCN(C)CC2)c(Cc2ccccc2C#N)c1 target_of_assay="hTRPM8 (Homo sapiens, UniProt Q7Z2W7)" experimental_result="6.52 to 7.30"
compound="Cc1cc(C)c(OC(C)CN2CCOCC2)c(Cc2ccccc2C#N)c1 (stereo not shown)" target_of_assay="hTRPM8 (Homo sapiens, UniProt Q7Z2W7)" experimental_result="6.52 to 7.30"

Okay, now this compound:
Which pEC50 reading was recorded for the compound `Cc1ccc(CCN2CCN(C)CC2)c(Cc2ccccc2)c1` ?
4.46 to 6.00
